assay: Half life in rat at 1 mg/kg, iv; type: ADME, organism-based; details: in vivo
Hi there, I'd appreciate the recorded half-life for every entry that follows.
Answers are plain numbers, in h.

# annotated cases, reported half-life shown
[[record]]
compound = "Cc1c(-c2ccc3c(c2)OCCO3)cccc1C(F)(F)Oc1cc(OCc2ccnc(C#N)c2)c(CN[C@@H](CO)[C@@H](O)[C@@H](O)[C@H](O)CO)cc1Cl"
units = "h"
experimental_value = 3.14

[[record]]
compound = "Cc1c(-c2ccc3c(c2)OCCO3)cccc1C(F)(F)Oc1cc(OCc2ccnc(C#N)c2)c(CN2CCCC[C@H]2C(=O)O)cc1Cl"
units = "h"
experimental_value = 0.71

[[record]]
compound = "Cc1c(-c2ccc3c(c2)OCCO3)cccc1C(F)(F)Oc1cc(OCc2cncc(C#N)c2)c(CNC(CO)(CO)CO)cc1Cl"
units = "h"
experimental_value = 1.32

[[record]]
compound = "Cc1cc(OCc2cccc(-c3ccc4c(c3)OCCO4)c2C)cc(OCc2cccc(C#N)c2)c1CN[C@H](CO)C(=O)O"
units = "h"
experimental_value = 0.47


Consider the record given below.
Incoming: Entry Cc1c(-c2ccc3c(c2)OCCO3)cccc1C(F)(F)Oc1cc(OCc2ccnc(C#N)c2)c(CN[C@@H]2C(O)O[C@H](CO)[C@@H](O)[C@@H]2O)cc1Cl (stereo not given in full) has what half-life?
Outgoing: 4.84
